Hello, the source for this data is BindingDB's records for doi:10.1074/jbc.M003490200, in case you need it.

Recorded below: Ki, system UniProt:Q9NPC1.
Sequence (Q9NPC1 whole entry): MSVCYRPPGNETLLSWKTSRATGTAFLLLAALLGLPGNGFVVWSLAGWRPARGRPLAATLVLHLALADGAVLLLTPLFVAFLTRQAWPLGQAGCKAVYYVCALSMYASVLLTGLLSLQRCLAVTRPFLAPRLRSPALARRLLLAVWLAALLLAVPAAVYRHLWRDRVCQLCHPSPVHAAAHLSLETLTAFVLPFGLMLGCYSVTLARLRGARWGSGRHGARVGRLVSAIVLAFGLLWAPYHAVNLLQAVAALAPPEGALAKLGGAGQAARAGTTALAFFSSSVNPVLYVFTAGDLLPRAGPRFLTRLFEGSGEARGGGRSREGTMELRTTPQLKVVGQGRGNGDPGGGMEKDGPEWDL
Just the number please, in nM, no unit attached.

The recorded Ki for entry "CCCCC/C=C\C\C=C/C=C/C=C/[C@@H](SC[C@H](N)C(=O)O)[C@@H](O)CCCC(=O)O" equals 693

Looking up "O=C(Nc1ccc2c(=O)cc(-c3nnn[nH]3)oc2c1)c1ccc(OCCCCc2ccccc2)cc1" , I found its Ki recorded as 3620

Per the records, this compound ( CCCCCC=CCC=CC=CC=CC(SCC(NC(=O)CCC(N)C(=O)O)C(=O)NCC(=O)O)C(O)CCCC(=O)O (stereo not drawn) ) has Ki equal to 3.35
